- TARGET UNDER TEST: hSTING-R232 (Homo sapiens (Human), UniProt Q86WV6, H232R)
- Sequence (Q86WV6 140-379 H232R): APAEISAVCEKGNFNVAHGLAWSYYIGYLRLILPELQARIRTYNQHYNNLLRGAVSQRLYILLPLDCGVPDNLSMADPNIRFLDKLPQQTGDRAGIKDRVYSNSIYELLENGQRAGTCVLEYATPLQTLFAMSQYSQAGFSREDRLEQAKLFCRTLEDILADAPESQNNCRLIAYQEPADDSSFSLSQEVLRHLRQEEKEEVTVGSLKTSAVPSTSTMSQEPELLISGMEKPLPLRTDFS
- ASSAY NAME: STING differential scanning fluorimetry (DSF) assay, WT human STING
- CONDITION SET: WT (R232) human STING aa140-379, net shift in melting temperature
OBSERVABLE: WT_DSF_hSWAT Tm Shift (° C.)

# annotated cases, reported WT_DSF_hSWAT Tm Shift (° C.) shown
>  <STRUCTURE SMILES STRING>
CSc1ccc2c(=O)c3ccc(Cl)c(Cl)c3n(CC(=O)O)c2c1

>  <WT_DSF_hSWAT Tm Shift (° C.)>
C (“C” = 2-7° C,)

$$$$
>  <STRUCTURE SMILES STRING>
O=C(O)Cn1c2ccc(-c3ccccc3)cc2c(=O)c2ccc(Cl)c(Cl)c21

>  <WT_DSF_hSWAT Tm Shift (° C.)>
C (“C” = 2-7° C,)

$$$$
>  <STRUCTURE SMILES STRING>
COc1ccccc1Nc1ccc2c(=O)c3ccc(Cl)c(OC)c3n(CC(=O)O)c2c1

>  <WT_DSF_hSWAT Tm Shift (° C.)>
D (“D” > 7° C.)

$$$$
>  <STRUCTURE SMILES STRING>
O=C(O)Cn1c2ccccc2c(=O)c2cccc(Br)c21

>  <WT_DSF_hSWAT Tm Shift (° C.)>
B (“B” = 0-2° C.)

$$$$
>  <STRUCTURE SMILES STRING>
CSc1c(Cl)ccc2c(=O)c3ccc(-c4ccc(O)cc4)cc3n(CC(=O)O)c12

>  <WT_DSF_hSWAT Tm Shift (° C.)>
D (“D” > 7° C.)

$$$$
>  <STRUCTURE SMILES STRING>
O=C(O)Cn1c2cc(NC3CCCCC3)ccc2c(=O)c2ccc(Cl)c(Br)c21

>  <WT_DSF_hSWAT Tm Shift (° C.)>
D (“D” > 7° C.)

$$$$
>  <STRUCTURE SMILES STRING>
COc1c(Cl)ccc2c(=O)c3cc(F)c(C(C)C)cc3n(CC(=O)O)c12

>  <WT_DSF_hSWAT Tm Shift (° C.)>
B (“B” = 0-2° C.)

$$$$

Q) // query WT_DSF_hSWAT Tm Shift (° C.) value for entry `O=C(O)Cn1c2cc(N3CCc4ccccc43)ccc2c(=O)c2ccc(Cl)c(Cl)c21`
A) C (“C” = 2-7° C,)
